Tested on: Flu virus strain A/Puerto Rico/8/1934 (PR8)
Assay: microbe, parasite or virus in culture
Format: cell-based
Conditions: unidentified influenza virus, PR8, MDCK, read-out: IC50, inhibition of influenza virus cytopathic activity, drug alone; FIG. 7 experiment; MDCK cells, influenza m.o.i. 0.01, pre-treated 1 h, two days
Reported IC50 values for a set of compounds

{"Record Smiles": "N=C(N)c1ncn([C@@H]2O[C@H](CO)[C@@H](O)[C@H]2O)n1", "Unit Text": "µM", "IC50": 94.7}
{"Record Smiles": "NC(=O)c1nc(F)c[nH]c1=O", "Unit Text": "µM", "IC50": 25.1}

###

Tested on: Flu virus strain A/Puerto Rico/8/1934 (PR8)
Test: microbe, parasite or virus in culture
Type: cell-based
Settings: unidentified influenza virus, PR8, MDCK, 48 h, read-out: estimated IC50 when used alone, Example A; MDCK cells, PR8 Flu virus 0.01 MOI, 48 hours
Reported IC50 values for a set of molecules
Endpoint Label: IC50 (µM)

{"Molecule": "NC(=O)c1nc(F)c[nH]c1=O", "Endpoint Label": "IC50", "Assay Value": 25}
{"Molecule": "COc1c(C)c2c(c(O)c1C/C=C(\\C)CCC(=O)O)C(=O)OC2 [Mycophenolate]", "Endpoint Label": "IC50", "Assay Value": 1.42}
{"Molecule": "N=C(N)c1ncn([C@@H]2O[C@H](CO)[C@@H](O)[C@H]2O)n1", "Endpoint Label": "IC50", "Assay Value": 94.7}
